System: Leishmania mexicana promastigotes
Experiment: L. mexicana promastigote growth inhibition
Format: cell-based
Settings: growth/viability, Bel 21 strain
Consider the following molecules and their measured pIC50 readings.
Interpret pIC50 as the negative base-10 log of the concentration measured in mol/L.

For orientation, consider the following solved cases.
COc1ccc(OC)c(C(=O)OCCNc2ccnc3cc(Cl)ccc23)c1	5.25
COc1cccc(C(=O)OCCNc2ccnc3cc(Cl)ccc23)c1OC	5.07

Now look at this entry.
Return value of pIC50 for input COc1ccc(C(=O)OCCNc2ccnc3cc(Cl)ccc23)cc1 , no commentary.
5.09

###

Test: In vitro toxicity on mouse red blood cells (haemolysis)
Assay type: cell-based
Conditions: mouse RBCs, 37 °C
Measurement kind: hemolysis at 45 min, 1 mM (%)
A number alone suffices; assume %.

Return value of hemolysis at 45 min, 1 mM for input CCN(CC)CCCC(C)Nc1ccnc2cc(Cl)ccc12 (stereo not shown) [CQ, chloroquine, reference compound] , no commentary.
2.07

###

Consider the following molecules and their measured hemolysis at 45 min, 1 mM readings.
Assay: In vitro toxicity on mouse red blood cells (haemolysis)
Format: cell-based
Conditions: 2% suspension of mouse red blood cells, mouse RBCs, 37 °C
A number alone suffices; assume %.

COc1ccc(OC)c(C(=O)OCCNc2ccnc3cc(Cl)ccc23)c1	4.17

Return value of hemolysis at 45 min, 1 mM for input COc1cccc(C(=O)OCCNc2ccnc3cc(Cl)ccc23)c1OC , no commentary.
4.73

###

Consider the following compounds and their measured IC50 readings.
Tested on: β-hematin formation
Assay: Inhibition of β-hematin formation
Format: biochemical
Settings: n = 3, read-out: IC50: Half maximal inhibitory concentration (βHF)
A number alone suffices; assume µM.

For orientation, consider the following solved cases.
O=C(OCCNc1ccnc2cc(Cl)ccc12)c1cccc(Cl)c1	6.85
OCCNc1ccnc2cc(Cl)ccc12	5.06

System β-hematin formation. Read-out IC50. Item COc1ccc(OC)c(C(=O)OCCNc2ccnc3cc(Cl)ccc23)c1 . Report value.
1.81

System β-hematin formation. Read-out IC50. Item COc1cccc(C(=O)OCCNc2ccnc3cc(Cl)ccc23)c1OC . Report value.
2.1
